- SUBJECT_OF_TEST: GABA-A receptor; alpha-3/beta-3/gamma-2 (Homo sapiens) (UniProt P18507+P28472+P34903)
- ASSAY_NOTES: Efficacy was measured as modulation of the current in response to GABA at hGABA alpha-3-beta-3-gamma-2 receptor expressed in Xenopus oocytes
- Format: cell-based
- EXPERIMENTAL_SETUP: Oocyte
ATTRIBUTE_MEASURED: Efficacy (%)
Numbers only; they are read as %.

Here are 4 compounds together with their reported answers.
CPD_SMILES | ATTRIBUTE_MEASURED | DISPLAY_UNIT | ENDPOINT_RESULT
c1ccc(-c2nnc3c4c(c(OCc5nccc6ccccc56)nn23)C2CCC4CC2)cc1 | Efficacy | % | 14
N#Cc1cccc(COc2nn3c(-c4ccccc4)nnc3c3c2C2CCC3CC2)c1 | Efficacy | % | 38
c1ccc(-c2nnc3c4c(c(OCc5ccncc5)nn23)C2CCC4CC2)cc1 | Efficacy | % | 17
c1ccc(-c2nnc3c4c(c(OCc5ccncn5)nn23)C2CCC4CC2)cc1 | Efficacy | % | 14

Now examine the next entry.
State the recorded Efficacy for this entry: Cc1ccc(-c2nnc3c4c(c(OCc5ccccn5)nn23)C2CCC4CC2)cc1
40
